Biological target: Vitamin D3 receptor (Homo sapiens)
Test: Activity at human VDR assessed as transcriptional activation in COS cells after 24 hrs by luciferase reporter gene assay relative to 1-alpha,25-(OH)2D3
readout kind: Activity

[[record]]
molecule = "CCC(O)(CC)CCCS[C@@H](C)C1=CCC2/C(=C/C=C3C[C@@H](O)C[C@H](O)C3)CCC[C@]12C (some centres undefined)"
system_tested = "Vitamin D3 receptor (Homo sapiens)"
val = "2000%"

[[record]]
molecule = "CCC(O)(CC)CS[C@H](C)C1=CCC2/C(=C/C=C3C[C@@H](O)C[C@H](O)C3)CCC[C@]12C (some centres undefined)"
system_tested = "Vitamin D3 receptor (Homo sapiens)"
val = "9%"

[[record]]
molecule = "CCC(O)(CC)CCCCCS[C@@H](C)C1=CCC2/C(=C/C=C3C[C@@H](O)C[C@H](O)C3)CCC[C@]12C (some centres undefined)"
system_tested = "Vitamin D3 receptor (Homo sapiens)"
val = "2%"

[[record]]
molecule = "CCC(O)(CC)CCS[C@H](C)C1=CCC2/C(=C/C=C3C[C@@H](O)C[C@H](O)C3)CCC[C@]12C (some centres undefined)"
system_tested = "Vitamin D3 receptor (Homo sapiens)"
val = "27%"


----------
Reported Activity is given for each of the following compounds.
Molecular target: Vitamin D3 receptor (Rattus norvegicus) (UniProt P13053)
Sequence (P13053 whole entry, the tested form may be a part): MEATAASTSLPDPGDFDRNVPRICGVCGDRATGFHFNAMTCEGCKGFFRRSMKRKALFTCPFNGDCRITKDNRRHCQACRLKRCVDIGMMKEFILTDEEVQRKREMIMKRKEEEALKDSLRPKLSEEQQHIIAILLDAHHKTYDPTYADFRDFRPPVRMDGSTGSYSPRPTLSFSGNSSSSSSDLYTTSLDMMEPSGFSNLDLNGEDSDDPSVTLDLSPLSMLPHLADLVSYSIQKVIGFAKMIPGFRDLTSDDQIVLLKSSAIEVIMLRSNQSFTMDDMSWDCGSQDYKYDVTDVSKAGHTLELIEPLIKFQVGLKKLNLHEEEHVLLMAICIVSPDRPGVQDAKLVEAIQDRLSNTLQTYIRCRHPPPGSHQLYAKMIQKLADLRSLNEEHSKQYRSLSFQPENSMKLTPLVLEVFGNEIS
Experiment: Displacement of [3H]1-alpha,25-(OH)2D3 from rat recombinant VDR ligand-binding domain relative to 1-alpha,25-(OH)2D3
readout kind: Activity

[[record]]
compound = "CCC(O)(CC)CS[C@@H](C)C1=CCC2/C(=C/C=C3C[C@@H](O)C[C@H](O)C3)CCC[C@]12C (stereo partly specified)"
readout_kind = "Activity"
val = "60%"

[[record]]
compound = "CCC(O)(CC)CCCS[C@H](C)C1=CCC2/C(=C/C=C3C[C@@H](O)C[C@H](O)C3)CCC[C@]12C (stereo partly specified)"
readout_kind = "Activity"
val = "8%"

[[record]]
compound = "CCC(O)(CC)CCS[C@H](C)C1=CCC2/C(=C/C=C3C[C@@H](O)C[C@H](O)C3)CCC[C@]12C (stereo partly specified)"
readout_kind = "Activity"
val = "4%"

[[record]]
compound = "CCC(O)(CC)CCCS[C@@H](C)C1=CCC2/C(=C/C=C3C[C@@H](O)C[C@H](O)C3)CCC[C@]12C (stereo partly specified)"
readout_kind = "Activity"
val = "100%"

[[record]]
compound = "CCC(O)(CC)CS[C@H](C)C1=CCC2/C(=C/C=C3C[C@@H](O)C[C@H](O)C3)CCC[C@]12C (stereo partly specified)"
readout_kind = "Activity"
val = "6%"

[[record]]
compound = "CCC(O)(CC)CCS[C@@H](C)C1=CCC2/C(=C/C=C3C[C@@H](O)C[C@H](O)C3)CCC[C@]12C (stereo partly specified)"
readout_kind = "Activity"
val = "100%"


----------
Biological target: Vitamin D3 receptor (Homo sapiens) (UniProt P11473)
Assay: Activity at human VDR assessed as transcriptional activation in COS cells after 24 hrs by luciferase reporter gene assay relative to 1-alpha,25-(OH)2D3
readout kind: Activity (%)

[[record]]
compound = "CCC(O)(CC)CCCCS[C@@H](C)C1=CCC2/C(=C/C=C3C[C@@H](O)C[C@H](O)C3)CCC[C@]12C (some centres undefined)"
val = 1

[[record]]
compound = "CCC(O)(CC)CCCS[C@H](C)C1=CCC2/C(=C/C=C3C[C@@H](O)C[C@H](O)C3)CCC[C@]12C (some centres undefined)"
val = 20

[[record]]
compound = "CCC(O)(CC)CS[C@@H](C)C1=CCC2/C(=C/C=C3C[C@@H](O)C[C@H](O)C3)CCC[C@]12C (some centres undefined)"
val = 104

[[record]]
compound = "CCC(O)(CC)CCS[C@@H](C)C1=CCC2/C(=C/C=C3C[C@@H](O)C[C@H](O)C3)CCC[C@]12C (some centres undefined)"
val = 2000


All values here come from ChEMBL document CHEMBL1143124.
